Assay: Isoelectric focusing electrophoresis (pI observed)
Assay type: physicochemical
Details: pH 3 to 10 gel
observation.type: pI observed
Provide a numeric answer; units are not to be included.

Problem: # pI observed lookup, item TM2 R104EK141E: TM2 mutant, arginine 104 and lysine 141 each replaced with glutamic acid; SEQ ID NO: 16 (protein, Synthetic TM2 R104EK141E) MSDVQSSLTGTWYNELNSKMELTANKDGTLTGKYLSKVGDVYVPYPLSGRYNLQPPAGQGVALGWAVSWENSKIHSATTWSGQFFSESSPVILTQWLLSSSTAEGDVWESTLVGNDSFTKTAPTEQQIAHAQLHCRAPRLE
Result: 6.2
